Hello, the source for this data is patent EP4631938A1, in case you need it.

- TARGET OR SYSTEM: human recombinant 5-HT2A receptor (Homo sapiens)
- Construct: expressed in transfected cells; host or cells: Jump-In HEK cells (membrane preparation)
- Sequence (P28223 whole entry): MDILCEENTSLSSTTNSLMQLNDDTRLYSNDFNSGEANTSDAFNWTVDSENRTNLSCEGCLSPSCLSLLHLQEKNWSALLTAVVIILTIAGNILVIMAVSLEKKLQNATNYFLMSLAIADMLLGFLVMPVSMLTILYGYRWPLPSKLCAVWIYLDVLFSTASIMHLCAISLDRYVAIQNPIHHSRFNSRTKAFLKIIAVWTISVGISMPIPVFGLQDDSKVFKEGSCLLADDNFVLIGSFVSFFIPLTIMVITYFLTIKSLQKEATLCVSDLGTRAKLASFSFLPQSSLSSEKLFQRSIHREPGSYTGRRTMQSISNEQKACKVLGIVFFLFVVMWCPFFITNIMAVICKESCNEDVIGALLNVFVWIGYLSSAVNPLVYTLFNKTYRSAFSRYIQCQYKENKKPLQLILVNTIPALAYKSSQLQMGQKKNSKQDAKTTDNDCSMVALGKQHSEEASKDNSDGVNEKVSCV
- PROCEDURE DETAILS: Test Example 1-2: 5-HT2A receptor binding inhibition test ([3H]-Ketanserin; non-specific ligand Ketanserin)
- CONDITION NOTES: [3H]-Ketanserin; non-specific binding with 500 µmol/L Ketanserin; room temperature (25°C), 1.5 hours; read-out: h 5-HT2A Ki
Label class 1 when Ki is strictly below 0.4 nM; at or above that, label class 0.

These solved cases illustrate the format of a correct answer.
SAMPLE SMILES: Cn1ncc(Br)c1-c1cc(Nc2ccc(C3CC3)cn2)ccc1OCCO
CLASS NAME: class 1

SAMPLE SMILES: CNC(=O)c1ccc(F)c(-c2cc(Nc3ncc(C(F)(F)F)cc3F)ncc2OCCO)c1
CLASS NAME: class 1

SAMPLE SMILES: COCc1nc(C)c(-c2cc(Nc3ncc(OCCCC(F)(F)F)cc3Cl)ncc2OCCO)c(C)n1
CLASS NAME: class 0

Ask: Problem: For the compound Cc1nc(C)c(-c2cc(Nc3ccc(Cl)cn3)ccc2OCCO)c(C)n1 , is Ki under 0.4 nM?
Result: class 0

Ask: Problem: For the compound Cc1cc(Cl)ccc1Nc1ncc(OCCO)c(-c2c(Br)cnn2C)n1 , is Ki under 0.4 nM?
Result: class 1

Ask: Problem: For the compound COCc1nc(C)c(-c2cc(Nc3ncc(C(F)(F)F)cc3F)ncc2OCCO)c(C)n1 , is Ki under 0.4 nM?
Result: class 0

Ask: Problem: For the compound Cn1ncc(Br)c1-c1cc(Nc2ccc(Cl)cn2)ncc1OCCO , is Ki under 0.4 nM?
Result: class 1

Ask: Problem: For the compound Cn1ncc(Br)c1-c1nc(Nc2ccc(C(F)(F)F)c(Cl)c2)ncc1OCCO , is Ki under 0.4 nM?
Result: class 1

----------
- TARGET OR SYSTEM: human recombinant 5-HT2A receptor (Homo sapiens)
- Construct: expressed in transfected cells; host or cells: Jump-In HEK cells (membrane preparation)
- PROCEDURE DETAILS: Test Example 1: 5-HT2A receptor binding inhibition test ([3H]-Ketanserin; non-specific ligand Serotonin HCl)
- CONDITION NOTES: [3H]-Ketanserin; non-specific binding with 500 µmol/L Serotonin HCl; room temperature (25°C), 1.5 hours; read-out: h 5-HT2A Ki
- Procedure: The Kd value is calculated when the lot of the cell membrane is changed. […] The radioactivity of [^3H]-Ketanserin bound to the 5-HT2A receptor is measured using Microbeta2 (PerkinElmer) at a measurement time of 1 min/well. The Saturation curve is drawn from the measured value, and the Kd value is calculated from the slope of the Scatchard Plot. […]
ENDPOINT LABEL: Ki
Give your result as the value with the unit written after it.

Here's what some known entries look like.
SAMPLE SMILES: Cn1ncc(Br)c1-c1cc(Nc2ncc(C(F)(F)F)s2)ccc1OCCO
Ki: 301 pM
--
SAMPLE SMILES: Cn1ncc(Br)c1-c1cc(Nc2ccc(C(F)(F)F)cc2)ccc1OCCO
Ki: 447 pM
--
SAMPLE SMILES: Cn1ncc(Br)c1-c1cc(Nc2ccc(C(F)(F)F)nn2)ccc1OCCO
Ki: 548 pM
--
SAMPLE SMILES: Cn1ncc(Br)c1-c1cc(Nc2ccc(C(F)(F)F)cn2)ccc1OCCO
Ki: 420 pM
--
SAMPLE SMILES: Cn1nccc1-c1cc(Nc2ncc(C(F)(F)F)cc2F)ccc1OCCO
Ki: 337 pM

Ask: Specify Ki for Cn1ncc(Br)c1-c1cc(Nc2ccc(F)cc2)ccc1OCCO and stop.
Result: 597 pM

Ask: Specify Ki for Cc1cnn(C)c1-c1cc(Nc2ncc(C(F)(F)F)cc2F)ccc1OCCO and stop.
Result: 344 pM
